# Test system: 201T
# ASSAY_NAME: relative viability (nuclei count vs DMSO), 5 days (fraction); higher = more cells survive
# SETTINGS: first compound 0.1 µM
OUTCOME_MEASURE: relative viability
Answer as a number with no unit attached.

Task item: # relative viability lookup, item CCN(CC)CCCCNc1ncc2cc(-c3cc(OC)cc(OC)c3)c(NC(=O)NC(C)(C)C)nc2n1 + Nc1ncn([C@H]2C[C@H](O)[C@@H](CO)O2)c(=O)n1 [Decitabine] (partner 2 µM)
Reply: 0.86

Task item: Also, O=c1cc(N2CCOCC2)oc2c(-c3cccc4c3sc3ccccc34)cccc12 + CC(C)C[C@H](NC(=O)[C@H](Cc1ccccc1)NC(=O)c1cnccn1)B(O)O [Bortezomib] (partner 0.002 µM) please.
Reply: 0.957

Task item: Also, CCN(CC)CCCCNc1ncc2cc(-c3cc(OC)cc(OC)c3)c(NC(=O)NC(C)(C)C)nc2n1 + C[C@]1(O)C[C@@H](c2nc(-c3ccc4ccc(-c5ccccc5)nc4c3)c3c(N)nccn32)C1 [Linsitinib] (partner 1 µM) please.
Reply: 1.07

---

# System: HCC-78
# ASSAY_NAME: relative viability (nuclei count vs DMSO), 5 days (fraction); higher = more cells survive
# SETTINGS: first compound 1 µM
OUTCOME_MEASURE: relative viability
Answer as a number with no unit attached.

Completed entries (count: 3):
>>> recorded_number("CCN(CC)CCCCNc1ncc2cc(-c3cc(OC)cc(OC)c3)c(NC(=O)NC(C)(C)C)nc2n1 + C[C@]1(O)C[C@@H](c2nc(-c3ccc4ccc(-c5ccccc5)nc4c3)c3c(N)nccn32)C1 [Linsitinib] (partner 1 µM)")
0.415
>>> recorded_number("O=c1cc(N2CCOCC2)oc2c(-c3cccc4c3sc3ccccc34)cccc12 + Cc1cc(Nc2cc(N3CCN(C)CC3)nc(Sc3ccc(NC(=O)C4CC4)cc3)n2)n[nH]1 [Tozasertib] (partner 0.1 µM)")
0.452
>>> recorded_number("CCN(CC)CCCCNc1ncc2cc(-c3cc(OC)cc(OC)c3)c(NC(=O)NC(C)(C)C)nc2n1 + CC(=O)Nc1cccc(-n2c(=O)n(C3CC3)c(=O)c3c(Nc4ccc(I)cc4F)n(C)c(=O)c(C)c32)c1 [Trametinib] (partner 0.02 µM)")
0.76

Task item: # relative viability lookup, item CCN(CC)CCCCNc1ncc2cc(-c3cc(OC)cc(OC)c3)c(NC(=O)NC(C)(C)C)nc2n1 + N=C(N)NC(=N)NCCc1ccccc1 [Phenformin] (partner 250 µM)
Reply: 0.631

---

# Test system: PC-14
# ASSAY_NAME: relative viability (nuclei count vs DMSO), 5 days (fraction); higher = more cells survive
# SETTINGS: first compound 0.6325 µM
The reader will find reported relative viability values listed item by item below.
Answer as a number with no unit attached.

Completed entries (count: 2):
>>> recorded_number("COCC1(CO)C(=O)C2CCN1CC2 (stereo not drawn) [PRIMA-1MET] + Nc1ncn([C@H]2C[C@H](O)[C@@H](CO)O2)c(=O)n1 [Decitabine] (partner 2 µM)")
0.109
>>> recorded_number("COCC1(CO)C(=O)C2CCN1CC2 (stereo not drawn) [PRIMA-1MET] + CC1(C)CCC(c2ccc(Cl)cc2)=C(CN2CCN(c3ccc(C(=O)NS(=O)(=O)c4ccc(N[C@H](CCN5CCOCC5)CSc5ccccc5)c(S(=O)(=O)C(F)(F)F)c4)cc3)CC2)C1 [Navitoclax] (partner 0.5 µM)")
0.932

Let us move to another entry and its relative viability.
Task item: Give recorded relative viability with PC-14 for the following compound: COCC1(CO)C(=O)C2CCN1CC2 (stereo not drawn) [PRIMA-1MET] + O=C(CCCCCCC(=O)Nc1ccccc1)NO [Vorinostat] (partner 1 µM)
Reply: 0.755

---

# Test system: NCI-H596
# ASSAY_NAME: relative viability (nuclei count vs DMSO), 5 days (fraction); higher = more cells survive
# SETTINGS: first compound 0.03162 µM
hey, just use 1 if measured relative viability is less than 1, otherwise -1

Known results for molecules:
>>> cat("CCN(CC)CCCCNc1ncc2cc(-c3cc(OC)cc(OC)c3)c(NC(=O)NC(C)(C)C)nc2n1 + C[C@@H](Oc1cc(-c2cnn(C3CCNCC3)c2)cnc1N)c1c(Cl)ccc(F)c1Cl [Crizotinib] (partner 1 µM)")
-1
>>> cat("O=c1cc(N2CCOCC2)oc2c(-c3cccc4c3sc3ccccc34)cccc12 + NC(=O)Nc1cc(-c2cccc(F)c2)sc1C(=O)N[C@H]1CCCNC1 [AZD7762] (partner 0.2 µM)")
-1
>>> cat("O=c1cc(N2CCOCC2)oc2c(-c3cccc4c3sc3ccccc34)cccc12 + CC1(C)CCC(c2ccc(Cl)cc2)=C(CN2CCN(c3ccc(C(=O)NS(=O)(=O)c4ccc(N[C@H](CCN5CCOCC5)CSc5ccccc5)c(S(=O)(=O)C(F)(F)F)c4)cc3)CC2)C1 [Navitoclax] (partner 0.5 µM)")
1
>>> cat("CCN(CC)CCCCNc1ncc2cc(-c3cc(OC)cc(OC)c3)c(NC(=O)NC(C)(C)C)nc2n1 + Cc1nc(NC(=O)N2CCC[C@H]2C(N)=O)sc1-c1ccnc(C(C)(C)C(F)(F)F)c1 [Alpelisib] (partner 2 µM)")
1

Consider the record given below.
Task item: For CCN(CC)CCCCNc1ncc2cc(-c3cc(OC)cc(OC)c3)c(NC(=O)NC(C)(C)C)nc2n1 + N=C(N)NC(=N)NCCc1ccccc1 [Phenformin] (partner 250 µM) , is the recorded relative viability below the cut-off of 1?
Reply: 1

---

The reader will find reported relative viability values listed item by item below.
# Test system: UMC-11
# ASSAY_NAME: relative viability (nuclei count vs DMSO), 5 days (fraction); higher = more cells survive
# SETTINGS: first compound 0.08 µM
Answer as a number with no unit attached.

Completed entries (count: 2):
>>> recorded_number("COc1nc(C)cnc1NS(=O)(=O)c1cccnc1-c1ccc(-c2nnco2)cc1 [Zibotentan] + COc1cc2c(Oc3ccc(NC(=O)C4(C(=O)Nc5ccc(F)cc5)CC4)cc3F)ccnc2cc1OCCCN1CCOCC1 [Foretinib] (partner 0.25 µM)")
1.05
>>> recorded_number("O=c1cc(-c2cccc3c2Sc2ccccc2S3)oc(N2CCOCC2)c1 + Nc1ncn([C@H]2C[C@H](O)[C@@H](CO)O2)c(=O)n1 [Decitabine] (partner 2 µM)")
0.599

Let us move to another entry and its relative viability.
Task item: # relative viability lookup, item COc1nc(C)cnc1NS(=O)(=O)c1cccnc1-c1ccc(-c2nnco2)cc1 [Zibotentan] + C[C@@H](Oc1cc(-c2cnn(C3CCNCC3)c2)cnc1N)c1c(Cl)ccc(F)c1Cl [Crizotinib] (partner 1 µM)
Reply: 0.606

---

# Tested on: NCI-H460
# ASSAY_NAME: relative viability (nuclei count vs DMSO), 5 days (fraction); higher = more cells survive
# SETTINGS: first compound 0.1 µM
hey, just use Y if measured relative viability is less than 0.5, otherwise N

Known results for compounds:
>>> cat("O=c1cc(N2CCOCC2)oc2c(-c3cccc4c3sc3ccccc34)cccc12 + NC(=O)Nc1cc(-c2cccc(F)c2)sc1C(=O)N[C@H]1CCCNC1 [AZD7762] (partner 0.2 µM)")
"Y"
>>> cat("CCN(CC)CCCCNc1ncc2cc(-c3cc(OC)cc(OC)c3)c(NC(=O)NC(C)(C)C)nc2n1 + CC(=O)Nc1cccc(-n2c(=O)n(C3CC3)c(=O)c3c(Nc4ccc(I)cc4F)n(C)c(=O)c(C)c32)c1 [Trametinib] (partner 0.02 µM)")
"Y"
>>> cat("O=c1cc(N2CCOCC2)oc2c(-c3cccc4c3sc3ccccc34)cccc12 + CC1(C)CCC(c2ccc(Cl)cc2)=C(CN2CCN(c3ccc(C(=O)NS(=O)(=O)c4ccc(N[C@H](CCN5CCOCC5)CSc5ccccc5)c(S(=O)(=O)C(F)(F)F)c4)cc3)CC2)C1 [Navitoclax] (partner 0.5 µM)")
"N"

Task item: For O=c1cc(N2CCOCC2)oc2c(-c3cccc4c3sc3ccccc34)cccc12 + Nc1nc2[nH]cc(CCc3ccc(C(=O)N[C@@H](CCC(=O)O)C(=O)O)cc3)c2c(=O)[nH]1 [Pemetrexed] (partner 0.2 µM) , is the recorded relative viability below the cut-off of 0.5?
Reply: Y

Task item: Also, CCN(CC)CCCCNc1ncc2cc(-c3cc(OC)cc(OC)c3)c(NC(=O)NC(C)(C)C)nc2n1 + CS(=O)(=O)N1CCN(Cc2cc3nc(-c4cccc5[nH]ncc45)nc(N4CCOCC4)c3s2)CC1 [Pictilisib] (partner 1 µM) please.
Reply: Y

Task item: Also, CCN(CC)CCCCNc1ncc2cc(-c3cc(OC)cc(OC)c3)c(NC(=O)NC(C)(C)C)nc2n1 + CCNC(=O)c1noc(-c2cc(C(C)C)c(O)cc2O)c1-c1ccc(CN2CCOCC2)cc1 [Luminespib] (partner 0.01 µM) please.
Reply: Y

Task item: Also, CCN(CC)CCCCNc1ncc2cc(-c3cc(OC)cc(OC)c3)c(NC(=O)NC(C)(C)C)nc2n1 + COc1cccc2cc(-c3nc([C@H]4CC[C@H](C(=O)O)CC4)n4ncnc(N)c34)[nH]c12 [OSI-027] (partner 0.5 µM) please.
Reply: N
